Biological target: Dickkopf-related protein 1 (Homo sapiens)
Assay: DKK1 binders on small-molecule microarrays, primary screen, biochemical, small-molecule microarray, 635 nm fluorescence scan (AID 1106);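 further: score merges emission near 667 nm with signal to noise over three replicate slides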
Conditions: DKK1 binding, higher = more signal
Binary classification by composite z-score, with 0.4 as an inclusive lower bound for Fulfilled; all other cases are Not fulfilled.

Previously resolved entries follow.
{"molecule": "C=C(CCCC)/C(=C/C[C@@H](OC(C)=O)c1ccc(CO)o1)c1cc(C(=O)OC)ccc1OC", "classification": "Fulfilled"}
{"molecule": "COCCOC(=O)N1C(=O)[C@@]2(c3ccccc31)[C@H](c1ccc(OCCO)cc1)N1[C@H](c3ccccc3)[C@H](c3ccccc3)OC(=O)[C@H]1[C@@H]2C(=O)Nc1nc2ccccc2s1", "classification": "Not fulfilled"}
{"molecule": "COCCOC(=O)N1C(=O)[C@@]2(c3cc(C#Cc4ccc(OC)cc4)ccc31)[C@H](C(=O)N1CCCCCCC1)[C@H]1C(=O)O[C@H](c3ccccc3)[C@H](c3ccccc3)N1[C@@H]2c1ccc(O)cc1", "classification": "Fulfilled"}
{"molecule": "COc1ccc(C(O)C2C=CC3C(=O)N(C)C(=O)C3N2N2CCCCC2)cc1 (centres undefined)", "classification": "Not fulfilled"}
{"molecule": "CCCC[C@@H]1C[C@H]1[C@@H](NC(=O)c1ccccc1)c1ccc(Cl)cc1", "classification": "Not fulfilled"}

Decide: is the reported value of composite z-score for `CCOC(=O)C[C@H]1[C@H](OC(=O)c2ccccc2-c2ccccc2)[C@@H](NC(=O)CC(C)C)c2cc(OCCCO)ccc2N1C(=O)c1ccc2ccccc2n1` equal to or greater than 0.4?
Fulfilled

Decide: is the reported value of composite z-score for CN1C(=O)C2C=CC(C(O)Cc3ccccc3)N(N(c3ccccc3)c3ccccc3)C2C1=O (centres undefined) equal to or greater than 0.4?
Not fulfilled

Decide: is the reported value of composite z-score for `COC(=O)[C@@]1(Cc2ccc(OC)cc2)[C@H]2c3cc(C(=O)N(C)C)n(Cc4nc5ccccc5[nH]4)c3C[C@H]2CN1C(=O)c1ccccc1` equal to or greater than 0.4?
Not fulfilled

---

The following molecules are shown together with reported composite z-score values.
Test: small-molecule microarray binders of probe aLefty2, primary screen, biochemical, biotinylated probe, 635/667 nm fluorescence (AID 1094);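 further: score merges spot fluorescence near 667 nm with spot signal-to-noise ratio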
Conditions: higher = more signal

What value of composite z-score has been recorded for this entry: `O=C(CCCCCCC(=O)Nc1ccccc1)N/N=C/c1ccccc1`
-0.105

What value of composite z-score has been recorded for this entry: `CCOC(=O)C1=C[C@@H](c2ccccc2)N(S(=O)(=O)c2ccc(C)cc2)[C@H]1c1cccc(Cl)c1`
0.268

What value of composite z-score has been recorded for this entry: O=C1OCCC=C[C@H]2OC34C=CCN(c5ccc(Cl)cc5)C(=O)[C@H]3N(CCCCCO)C(=O)[C@@H]4C12 (some centres undefined)
0.0636

What value of composite z-score has been recorded for this entry: CCOc1cc(C(O)C2C=CC3C(=O)N(C)C(=O)C3N2N2CCCCC2)ccc1O (centres undefined)
0.0209

---

Molecular target: Follistatin-related protein 3 (Homo sapiens)
Experiment: FSTL3 binders on small-molecule microarrays, primary screen, biochemical, small-molecule microarray, 635 nm fluorescence (AID 1105);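 further: score merges emission near 667 nm and signal to noise per printed spot across three slides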
Settings: FSTL3 binding, higher = more signal
Binary classification by composite z-score, with 0.1 as an inclusive lower bound for t; all other cases are f.

{"compound": "C=C(/C(=C/C[C@@H](OC(=O)c1ccncc1)c1ccc(OCCO)cc1)c1cc(C(=O)OC)ccc1OC)C(C)C", "classification": "t"}

Decide: is the reported value of composite z-score for `CN(C)CCCCNC(=O)[C@H]1C[C@H]2C(=O)N3CCC[C@H]3C(=O)N2[C@H]1c1ccc(O)cc1` equal to or greater than 0.1?
t

Decide: is the reported value of composite z-score for `C=C[C@H](COC(C)=O)NS(=O)(=O)c1ccc(Br)cc1` equal to or greater than 0.1?
t

Decide: is the reported value of composite z-score for COC(=O)C1(Cc2ccccc2)C=C2C(=C(C(C)C)C(=O)C2C)CN1 (centres undefined) equal to or greater than 0.1?
f

Decide: is the reported value of composite z-score for `COc1ccc([Si](C)(C)[C@H]2[C@H](CC(=O)N3Cc4ccccc4C[C@H]3CO)O[C@@]3(C(=O)N(Cc4cccc(N5CCCCC5=O)c4)c4ccccc43)[C@@H]2C)cc1` equal to or greater than 0.1?
t

Decide: is the reported value of composite z-score for `COc1cc2c(cc1OC)CN(C(=O)[C@@H]1[C@H]3C(=O)O[C@H](c4ccccc4)[C@H](c4ccccc4)N3[C@H](c3ccccc3OCCO)[C@@]13C(=O)Nc1ccc(C#CC4(O)CCCCCC4)cc13)CC2` equal to or greater than 0.1?
t

Decide: is the reported value of composite z-score for COc1ccc(C(O)C2C=CC3C(=O)N(Cc4ccccc4)C(=O)C3N2n2cnnc2)c2ccccc12 (centres undefined) equal to or greater than 0.1?
t

Decide: is the reported value of composite z-score for `C=C(CCCC)/C(=C/C[C@@H](OC(=O)c1ccncc1)c1cccc(OCCO)c1)c1cnc2ccccc2c1` equal to or greater than 0.1?
t

Decide: is the reported value of composite z-score for `COCCOC(=O)N1C(=O)[C@@]2(c3cc(C#Cc4ccc(OC)cc4)ccc31)[C@H](C(=O)N1CCCCCCC1)[C@H]1C(=O)O[C@H](c3ccccc3)[C@H](c3ccccc3)N1[C@@H]2c1ccc(O)cc1` equal to or greater than 0.1?
t

Decide: is the reported value of composite z-score for `COc1ccc(CCNC(=O)[C@@]2(Sc3ccc(C)cc3)CC(=O)N(Cc3cc(C(F)(F)F)cc(C(F)(F)F)c3)[C@@H]2c2ccc(CO)cc2I)cc1` equal to or greater than 0.1?
f

Decide: is the reported value of composite z-score for `C[C@H]1ON(c2ccc(C(=O)OC(C)(C)C)cc2)[C@@H](c2ccc(O)cc2)[C@@H]1C(=O)N1C(=O)OC[C@@H]1c1ccccc1` equal to or greater than 0.1?
t

Decide: is the reported value of composite z-score for O=C1NC(=O)C2C1C=CC(C(O)c1ccc3c(c1)OCO3)N2Nc1ccccn1 (centres undefined) equal to or greater than 0.1?
t

Decide: is the reported value of composite z-score for `COCC(=C=CC[C@H](O)c1ccc(OCCO)cc1)C[C@H](O)COCc1ccccc1` equal to or greater than 0.1?
t

Decide: is the reported value of composite z-score for `Cc1ccc(S[C@]2(C(=O)NC3CC3)CC(=O)N(Cc3ccccc3Cl)[C@@H]2c2ccc(CO)cc2I)cc1` equal to or greater than 0.1?
t
